Here's a batch of compounds along with measured % Dead cells (vehicle subtracted) for mouse cortical neuron cultures.
Please give a number only; it is taken to be in %.

Incoming: // query % Dead cells (vehicle subtracted) value for entry COCC(=O)N(c1c(C)cccc1C)C(C)C(=O)OC (centres unmarked) [Metalaxyl]
Outgoing: 0.5361

Incoming: // query % Dead cells (vehicle subtracted) value for entry Cc1cnc(C2=NC(C)(C(C)C)C(=O)N2)c(C(=O)O)c1 (centres unmarked)
Outgoing: -0.5785

Incoming: // query % Dead cells (vehicle subtracted) value for entry OCCOc1ccccc1 [Phenoxyethanol [2-Phenoxyethanol]]
Outgoing: 4.907

Incoming: // query % Dead cells (vehicle subtracted) value for entry COP(=S)(OC)Oc1ccc([N+](=O)[O-])cc1 [Parathion-methyl]
Outgoing: 1.486

Incoming: // query % Dead cells (vehicle subtracted) value for entry CCOP(=O)(SC(C)CC)N1CCSC1=O (centres unmarked) [Fosthiazate]
Outgoing: -0.4742

Incoming: // query % Dead cells (vehicle subtracted) value for entry Nc1c(Cl)c(Cl)nc(C(=O)O)c1Cl [Picloram]
Outgoing: 3.752

Incoming: // query % Dead cells (vehicle subtracted) value for entry CCCCOC(=O)[C@@H](C)Oc1ccc(Oc2ccc(C(F)(F)F)cn2)cc1
Outgoing: 0.5693

Incoming: // query % Dead cells (vehicle subtracted) value for entry Cl[C@H]1[C@H](Cl)[C@@H](Cl)[C@@H](Cl)[C@H](Cl)[C@H]1Cl [Lindane]
Outgoing: 3.537

Incoming: // query % Dead cells (vehicle subtracted) value for entry S=C([S-])NCCNC(=S)[S-].[Mn+2] [Maneb]
Outgoing: 6.097

Incoming: // query % Dead cells (vehicle subtracted) value for entry CCO/N=C(\CC)C1=C(O)CC(c2c(C)cc(C)cc2C)CC1=O (centres unmarked) [Tralkoxydim]
Outgoing: 4.508

Incoming: // query % Dead cells (vehicle subtracted) value for entry O=C(O)COc1nc(Cl)c(Cl)cc1Cl [Triclopyr]
Outgoing: -0.8572

Incoming: // query % Dead cells (vehicle subtracted) value for entry CCOP(=O)(OCC)Oc1cc(C)nc(C(C)C)n1 [Diazoxon]
Outgoing: -0.938

Incoming: // query % Dead cells (vehicle subtracted) value for entry COc1nc(C)nc(NC(=O)NS(=O)(=O)c2ccccc2C(=O)O)n1 [Metsulfuron (Ally)]
Outgoing: 1.078

Incoming: // query % Dead cells (vehicle subtracted) value for entry N#Cc1cc(Br)c(O)c(Br)c1
Outgoing: -1.631

Incoming: // query % Dead cells (vehicle subtracted) value for entry CC(C)N1C(=O)c2ccccc2NS1(=O)=O [Bentazone]
Outgoing: -0.5905

Incoming: // query % Dead cells (vehicle subtracted) value for entry CC(C)[C@H](C(=O)O[C@H](C#N)c1cccc(Oc2ccccc2)c1)c1ccc(Cl)cc1 [Esfenvalerate]
Outgoing: 4.898

Incoming: // query % Dead cells (vehicle subtracted) value for entry Nc1c(Cl)cc([N+](=O)[O-])cc1Cl [Dicloran]
Outgoing: -0.1169

Incoming: // query % Dead cells (vehicle subtracted) value for entry N#CN [Cyanamide]
Outgoing: 0.2955

Incoming: // query % Dead cells (vehicle subtracted) value for entry CC1=C(C(=O)Nc2ccccc2)SCCO1
Outgoing: 3.189

Incoming: // query % Dead cells (vehicle subtracted) value for entry COP(N)(=O)SC (centres unmarked) [Methamidophos]
Outgoing: -1.5388

Incoming: // query % Dead cells (vehicle subtracted) value for entry N#Cc1c[nH]cc1-c1cccc2c1OC(F)(F)O2 [Fludioxonil]
Outgoing: -2.856

Incoming: // query % Dead cells (vehicle subtracted) value for entry N#C/N=C1\SCCN1Cc1ccc(Cl)nc1 [Thiacloprid]
Outgoing: 2.238

Incoming: // query % Dead cells (vehicle subtracted) value for entry O=S1OCC2C(CO1)C1(Cl)C(Cl)=C(Cl)C2(Cl)C1(Cl)Cl (centres unmarked) [Endosulfan]
Outgoing: -0.8816

Incoming: // query % Dead cells (vehicle subtracted) value for entry CCOP(=S)(OCC)Oc1cc(C)nc(C(C)C)n1 [Diazinon]
Outgoing: 0.1738

Incoming: // query % Dead cells (vehicle subtracted) value for entry CCCOC(=O)c1ccc(C(=O)OCCC)nc1
Outgoing: -2.999

Incoming: // query % Dead cells (vehicle subtracted) value for entry CC1(C)CON(Cc2ccccc2Cl)C1=O [Clomazone]
Outgoing: -3.452

Incoming: // query % Dead cells (vehicle subtracted) value for entry CCC(C)(C)C(=O)OC1=C(c2ccc(Cl)cc2Cl)C(=O)OC12CCCCC2 [Spirodiclofen]
Outgoing: 1.699

Incoming: // query % Dead cells (vehicle subtracted) value for entry CC1COC(Cn2cncn2)(c2ccc(Oc3ccc(Cl)cc3)cc2Cl)O1 (centres unmarked) [Difenoconazole]
Outgoing: -2.028

Incoming: // query % Dead cells (vehicle subtracted) value for entry OC(c1ccc(Cl)cc1)(c1cncnc1)c1ccccc1Cl (centres unmarked) [Fenarimol]
Outgoing: -1.829

Incoming: // query % Dead cells (vehicle subtracted) value for entry CCC(CC)Nc1c([N+](=O)[O-])cc(C)c(C)c1[N+](=O)[O-] [Pendimethalin]
Outgoing: 0.8617

Incoming: // query % Dead cells (vehicle subtracted) value for entry CCc1cccc(CC)c1N(COC)C(=O)CCl [Alachlor]
Outgoing: 3.545

Incoming: // query % Dead cells (vehicle subtracted) value for entry CC(Oc1cccc(Cl)c1)C(=O)O (centres unmarked) [Cloprop]
Outgoing: -3.007

Incoming: // query % Dead cells (vehicle subtracted) value for entry N#CSCSc1nc2ccccc2s1
Outgoing: -1.603

Incoming: // query % Dead cells (vehicle subtracted) value for entry C#CCN1C(=O)COc2cc(F)c(N3C(=O)C4=C(CCCC4)C3=O)cc21 [Flumioxazin]
Outgoing: 7.054

Incoming: // query % Dead cells (vehicle subtracted) value for entry CN=C=S
Outgoing: 3.139

Incoming: // query % Dead cells (vehicle subtracted) value for entry CCOC(=O)COc1cc(-n2ncc(C(F)(F)F)c(C)c2=O)c(F)cc1Cl [Flufenpyr-ethyl]
Outgoing: -1.575

Incoming: // query % Dead cells (vehicle subtracted) value for entry CCOC(=O)CC(SP(=O)(OC)OC)C(=O)OCC (centres unmarked) [Malaoxon]
Outgoing: -0.008689

Incoming: // query % Dead cells (vehicle subtracted) value for entry CC(C)=CC1C(C(=O)OCN2C(=O)C3=C(CCCC3)C2=O)C1(C)C (centres unmarked) [Tetramethrin]
Outgoing: -2.018

Incoming: // query % Dead cells (vehicle subtracted) value for entry CSC(=O)c1cccc2nnsc12
Outgoing: -0.1497

Incoming: // query % Dead cells (vehicle subtracted) value for entry CNC(=O)Oc1cccc2c1OC(C)(C)O2 [Bendiocarb]
Outgoing: 9.256

Incoming: // query % Dead cells (vehicle subtracted) value for entry CCc1ccc(C(=O)NN(C(=O)c2cc(C)cc(C)c2)C(C)(C)C)cc1 [Tebufenozide]
Outgoing: -1.661

Incoming: // query % Dead cells (vehicle subtracted) value for entry COc1cc(OC)nc(NC(=O)[N-]S(=O)(=O)c2ncccc2OCC(F)(F)F)n1.[Na+] [Trifloxysulfuron-sodium]
Outgoing: 0.5929

Incoming: // query % Dead cells (vehicle subtracted) value for entry Oc1ccc(Cl)cc1Cc1ccccc1 [Clorophene]
Outgoing: 2.359

Incoming: // query % Dead cells (vehicle subtracted) value for entry COP(=O)(OC)OC(Br)C(Cl)(Cl)Br (centres unmarked) [Naled]
Outgoing: -0.709
